# test_name: Pharmacokinetic evaluation in humans
# Type: in vivo
# condition_notes: human, plasma, 150 mg, noncompartmental, read-out: Vss, Median
quantity_measured: Vd (L)
Just the number please, in L, no unit attached.

Briefly, Vd measured for C[C@H](NC(=O)[C@H](CCC(=O)O)NC(=O)CCCC[C@@H]1CCSS1)C(=O)O [RLip-EA-OH, N-(R)-lipoyl-L-glutamyl-L- alanine] : 13.2

====

# test_name: Pharmacokinetic evaluation in humans
# Format: in vivo
# condition_notes: human, plasma, 300 mg, compartmental, read-out: Vss, Minimum, maximum
quantity_measured: Vd

What the record says about C[C@H](NC(=O)[C@H](CCC(=O)O)NC(=O)CCCC[C@@H]1CCSS1)C(=O)O [RLip-EA-OH, N-(R)-lipoyl-L-glutamyl-L- alanine] : Vd is 8 to 16 L

====

# test_name: Pharmacokinetic evaluation in humans
# Format: in vivo
# condition_notes: human, plasma, 20 mg, noncompartmental, read-out: Cmax, Mean (SD)
quantity_measured: Cmax (ng/mL)
State the answer as a number, implicitly in ng/mL.

Cmax recorded for this compound, C[C@H](NC(=O)[C@H](CCC(=O)O)NC(=O)CCCC[C@@H]1CCSS1)C(=O)O [RLip-EA-OH, N-(R)-lipoyl-L-glutamyl-L- alanine] , is 1830

====

# test_name: Pharmacokinetic evaluation in humans
# Format: in vivo
# condition_notes: human, plasma, 150 mg, compartmental, read-out: AUCinf, Minimum, maximum
quantity_measured: AUC(0-inf)

Measured AUC(0-inf) of C[C@H](NC(=O)[C@H](CCC(=O)O)NC(=O)CCCC[C@@H]1CCSS1)C(=O)O [RLip-EA-OH, N-(R)-lipoyl-L-glutamyl-L- alanine] : 4890 to 9610 ng·h/mL

====

# test_name: Pharmacokinetic evaluation in humans
# Format: in vivo
# condition_notes: human, plasma, 150 mg, compartmental, read-out: AUCinf, Median
quantity_measured: AUC(0-inf) (µg·h/mL)
Use µg·h/mL as the unit, but write only the number.

Measured AUC(0-inf), C[C@H](NC(=O)[C@H](CCC(=O)O)NC(=O)CCCC[C@@H]1CCSS1)C(=O)O [RLip-EA-OH, N-(R)-lipoyl-L-glutamyl-L- alanine] : 6.92

====

# test_name: Pharmacokinetic evaluation in humans
# Format: in vivo
# condition_notes: human, plasma, 150 mg, noncompartmental, read-out: AUC0-t, Mean (SD)
# Experimental: Plasma and urine RLip-EA-OH concentrations were measured at BASi, Inc. (West Lafayette, Ind.) using a LC/MS/MS method with positive turbo ion spray, in the multiple reaction-monitoring mode. The quantifiable range for human plasma was 1.00 to 500 ng/mL and QC samples were included at 3.00, 75.0 and 375 ng/mL. The PK population included subjects who received RLip-EA-OH and had ≧1 post-dose PK measurement. […]
quantity_measured: AUC(0-t)
Please answer using the number first and the unit second.

Entry under test: C[C@H](NC(=O)[C@H](CCC(=O)O)NC(=O)CCCC[C@@H]1CCSS1)C(=O)O [RLip-EA-OH, N-(R)-lipoyl-L-glutamyl-L- alanine] . Its AUC(0-t) was 6980 ng·h/mL

====

# test_name: Pharmacokinetic evaluation in humans
# Assay type: in vivo
# condition_notes: human, plasma, 150 mg, compartmental, read-out: AUCinf, Mean (SD)
quantity_measured: AUC(0-inf) (µg·h/mL)
Record the value in µg·h/mL, omitting the unit from your answer.

The reported AUC(0-inf) of the molecule C[C@H](NC(=O)[C@H](CCC(=O)O)NC(=O)CCCC[C@@H]1CCSS1)C(=O)O [RLip-EA-OH, N-(R)-lipoyl-L-glutamyl-L- alanine] was 7.03
